system: Plasmodium falciparum; assay: Antiplasmodial activity against erythrocyte stage of Plasmodium falciparum W2 assessed as growth inhibition after 48 hrs by flow cytometry; type: functional, organism-based; details: W2, 48 h
pIC50: −log10 of the molar value.
parameter: pIC50

Solved entries (count: 2):
compound	measurement
COc1cc(NC(C)CCCNC(=O)/C=C/c2ccc(Cl)cc2)c2ncccc2c1 (stereo not drawn)	≤ 5.00
COc1cc(NC(C)CCCNC(=O)/C=C/c2ccc([N+](=O)[O-])cc2)c2ncccc2c1 (stereo not drawn)	≤ 5.00

Alright, here's another compound for you.
Query: pIC50; subject: COc1ccc(/C=C/C(=O)NCCCC(C)Nc2cc(OC)cc3cccnc23)cc1 (stereo not drawn)
≤ 5.00

---

system: Plasmodium falciparum; assay: Antiplasmodial activity against erythrocyte stage of Plasmodium falciparum W2 assessed as growth inhibition after 48 hrs by flow cytometry; format: functional, organism-based; conditions: W2, 48 h
pIC50: −log10 of the molar value.
Reported pIC50 values for a set of compounds

Take a look at these entries with their results.
compound	subject.of.test	pIC50
COc1cc(NC(C)CCCNC(=O)/C=C/c2cccc(F)c2)c2ncccc2c1 (stereo not drawn)	Plasmodium falciparum	≤ 5.00
COc1cc(NC(C)CCCNC(=O)/C=C/c2ccc(C)cc2)c2ncccc2c1 (stereo not drawn)	Plasmodium falciparum	≤ 5.00

We next turn to a different compound, shown below.
Reported pIC50 for COc1cc(NC(C)CCCNC(=O)/C=C/c2ccc(C(C)C)cc2)c2ncccc2c1 (stereo not drawn) : what is it?
5.32
